Test system: Hs578T complex spheroid growth, percent test/control
Test: Anticancer human tumor Hs578T cell line growth inhibition [AhR];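 note: luminescent viability signal as a proxy for spheroid growth; spheroids exposed to agents for one week after three days of growth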
Settings: second compound 3.16 µM; first compound 0.0316 µM; hits give low values
From the text: Multicellular complex tumor spheroid response to aryl hydrocarbon receptor antagonists in combination with a variety of drugs and investigational agents in selected tumor cell lines […] Compounds. […] If the clinical Cmax for an agent had not been determined, the highest concentration tested was 10 microM (Table 1). […]
readout type: viability, T/C (%)
Could you give me the number in %? Just the number is fine.

>  <compound>
CC[C@@]1(O)C(=O)OCc2c1cc1n(c2=O)Cc2cc3c(CN(C)C)c(O)ccc3nc2-1 + Cc1ccccc1N=Nc1ccc(NC(=O)c2ccnn2C)c(C)c1

>  <subject of test>
Hs578T complex spheroid growth, percent test/control

>  <readout number>
63.4

$$$$
>  <compound>
NS(=O)(=O)OCC1CC(n2ccc3c(NC4CCc5ccccc54)ncnc32)CC1O (stereo not given) + Cc1cncc(-c2nc(NCCc3c[nH]c4ccccc34)c3ncn(C(C)C)c3n2)c1

>  <subject of test>
Hs578T complex spheroid growth, percent test/control

>  <readout number>
69.2

$$$$

Lookup: Look up viability, T/C with Hs578T complex spheroid growth, percent test/control for this compound: COc1ccc([C@@H](O)c2cc(-c3ncnc4cc(N5CCOCC5)ccc34)c(F)cc2Cl)nn1 + Cc1ccccc1N=Nc1ccc(NC(=O)c2ccnn2C)c(C)c1
Found: 98.7

Lookup: Look up viability, T/C with Hs578T complex spheroid growth, percent test/control for this compound: COc1cc(Nc2ncc3c(n2)-c2ccc(Cl)cc2C(c2c(F)cccc2OC)=NC3)ccc1C(=O)O + Cc1ccccc1N=Nc1ccc(NC(=O)c2ccnn2C)c(C)c1
Found: 71.5

Lookup: Look up viability, T/C with Hs578T complex spheroid growth, percent test/control for this compound: COc1ccc([C@@H](O)c2cc(-c3ncnc4cc(N5CCOCC5)ccc34)c(F)cc2Cl)nn1 + CC(CO)NC(=O)c1cc(-c2ccc(Cl)cc2)nn(-c2cnn(C)c2)c1=O
Found: 111

Lookup: Look up viability, T/C with Hs578T complex spheroid growth, percent test/control for this compound: Nc1ncn(C2CC(O)C(CO)O2)c(=O)n1 (stereo not given) + Cc1cncc(-c2nc(NCCc3c[nH]c4ccccc34)c3ncn(C(C)C)c3n2)c1
Found: 82.6

Lookup: Look up viability, T/C with Hs578T complex spheroid growth, percent test/control for this compound: CC[C@@]1(O)C(=O)OCc2c1cc1n(c2=O)Cc2cc3c(CN(C)C)c(O)ccc3nc2-1 + CC(CO)NC(=O)c1cc(-c2ccc(Cl)cc2)nn(-c2cnn(C)c2)c1=O
Found: 82.9

Data origin: PubChem BioAssay AID1919010
